Biological target: UniProt Q15743
Assay: GloSensor cAMP assay, proton-mediated Gs-cAMP production at human GPR68
Type: cell-based
Details: difference of Log(αβ/KB) from that of 1; human GPR68
Below, each of the compounds is paired with its reported Δ value.
endpointLabel: Δ

1. Nc1nc(NCc2ccc(Cl)cc2)nc(-c2ccccc2CO)n1 : 0.80
2. Nc1nc(NCCCc2ccc(Oc3ccccc3)cc2)nc(-c2c(F)cccc2CO)n1 : 0.81
3. NCc1ccccc1-c1nc(N)nc(NCc2ccccc2)n1 : −0.30
4. Cc1cccc(CNc2nc(N)nc(-c3c(F)cccc3CO)n2)c1 : 0.11
5. COc1cccc(CNc2nc(N)nc(-c3ccccc3CO)n2)c1 : −0.09
6. Nc1nc(NCc2cccc(Cl)c2)nc(-c2ccccc2CO)n1 : 0.59
7. Cc1ccccc1CNc1nc(N)nc(-c2ccccc2CO)n1 : 0.26
8. Nc1nc(NCc2ccc(Oc3ccccc3)cc2)nc(-c2ccccc2CO)n1 : 0.83

###

Target: human GPR68 (Homo sapiens, UniProt Q15743)
Sequence (Q15743 whole entry): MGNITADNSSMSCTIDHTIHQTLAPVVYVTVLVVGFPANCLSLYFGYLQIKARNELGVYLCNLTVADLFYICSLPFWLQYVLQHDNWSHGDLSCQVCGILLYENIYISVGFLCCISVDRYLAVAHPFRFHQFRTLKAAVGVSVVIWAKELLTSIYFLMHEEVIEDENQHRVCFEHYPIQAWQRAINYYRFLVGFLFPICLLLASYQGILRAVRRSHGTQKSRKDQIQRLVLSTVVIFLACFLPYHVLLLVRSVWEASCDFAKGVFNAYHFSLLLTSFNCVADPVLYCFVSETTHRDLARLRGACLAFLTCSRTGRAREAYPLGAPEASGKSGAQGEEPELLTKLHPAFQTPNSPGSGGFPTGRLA
Test: GloSensor cAMP assay, proton-mediated Gs-cAMP production at human GPR68
Format: cell-based
Conditions: efficacy cooperativity; human GPR68, HEK293T, Gs-cAMP; mean ± SEM
endpointLabel: Log (β)

1) Nc1cc(-c2ccccc2CO)nc(NCc2ccccc2)n1 : Weak PAM
2) CC(O)c1ccccc1-c1nc(N)nc(NCc2ccccc2)n1 (stereo not shown) : Weak PAM
3) COc1cccc(CO)c1-c1nc(N)nc(NCc2ccccc2)n1 : Weak PAM
4) CC(=O)c1ccccc1-c1nc(N)nc(NCc2ccccc2)n1 : Weak PAM
5) Nc1nc(NCc2ccccc2)nc(-c2cccc(CO)c2)n1 : Inactive
6) CC(=O)c1cccc(-c2nc(N)nc(NCc3ccccc3)n2)c1 : Inactive
7) Cc1ccccc1-c1nc(N)nc(NCc2ccccc2)n1 : Weak PAM
8) CN(C)c1nc(NCc2ccccc2)nc(-c2ccccc2CO)n1 : Inactive
9) Nc1nc(NCc2ccccc2)nc(-c2ccccc2)n1 : Inactive
10) CNCc1ccccc1-c1nc(N)nc(NCc2ccccc2)n1 : Weak PAM

###

Target: human GPR68 (Homo sapiens)
Test: GloSensor cAMP assay, proton-mediated Gs-cAMP production at human GPR68
Assay type: cell-based
Conditions: human GPR68
endpointLabel: fold increased allosteric activity (log(αβ/KB)) compared to 1

1) Nc1nc(NCc2ccc(Oc3ccccc3)cc2)nc(-c2c(F)cccc2CO)n1 [Compound 71] : 33 fold
2) Nc1nc(NCCCc2ccccc2)nc(-c2cc(Cl)ccc2CO)n1 [Compound 78] : approximately 10 fold
3) Nc1nc(NCCc2ccccc2)nc(-c2cc(Cl)ccc2CO)n1 [Compound 77] : approximately 10 fold
4) Nc1nc(NCc2ccc(Cl)cc2)nc(-c2ccccc2CO)n1 [Compound 46] : 6 fold

###

Target: human GPR68 (Homo sapiens)
Assay: GloSensor cAMP assay, proton-mediated Gs-cAMP production at human GPR68
Type: cell-based
Settings: difference of Log(αβ/KB) from that of 1; human GPR68
Please use Condition met for Δ under 0.6 and Condition not met for everything else, ties included.

1. Nc1nc(NCCc2ccc(Oc3ccccc3)cc2)nc(-c2cc(Cl)ccc2CO)n1 [Compound 81] : Condition met
2. CCOc1ccc(CNc2nc(N)nc(-c3ccccc3CO)n2)cc1 [Compound 56] : Condition met
3. Nc1nc(NCCCc2ccc(Oc3ccccc3)cc2)nc(-c2ccccc2CO)n1 [Compound 65] : Condition met
4. Nc1nc(NCc2ccccc2)nc(-c2c(Cl)cccc2CO)n1 [Compound 28] : Condition met
5. Nc1nc(NCc2cccc(C(F)(F)F)c2)nc(-c2ccccc2CO)n1 [Compound 48] : Condition not met

Hey, just so you know, these numbers are from paper PMC6923801.
